Biological target: Cyclin-dependent kinase 6 (Homo sapiens) (UniProt Q00534);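 further: mean percent inhibition of the kinase bound to its cyclin partner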
Sequence (Q00534 whole entry): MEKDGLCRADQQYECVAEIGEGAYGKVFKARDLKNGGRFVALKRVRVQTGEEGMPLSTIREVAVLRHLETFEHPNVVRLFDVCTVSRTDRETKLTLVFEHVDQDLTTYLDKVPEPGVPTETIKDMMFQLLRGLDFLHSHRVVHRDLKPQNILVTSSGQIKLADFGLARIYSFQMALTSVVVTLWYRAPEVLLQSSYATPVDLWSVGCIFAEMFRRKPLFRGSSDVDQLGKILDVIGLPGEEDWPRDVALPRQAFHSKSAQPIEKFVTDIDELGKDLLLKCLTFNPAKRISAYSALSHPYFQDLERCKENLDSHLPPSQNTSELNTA
Conditions: at 1 µM
Listing of entries alongside the reported inhibition.
Give the quantity in %, number only.

Nc1ccc(C#Cc2cncnc2Nc2ccc(OCc3cccc(F)c3)c(Cl)c2)cc1    0.37

Form field inhibition, entry COc1cc(Nc2nccc(-c3cnn4ncccc34)n2)cc(OC)c1 : 76.1

Form field inhibition, entry FC(F)(F)c1ccc(-c2nn3ncccc3c2-c2ccnc(Nc3ccc4c(c3)OCCO4)n2)cc1 : 3.58

Form field inhibition, entry O=C1Nc2ccc(-c3cccnc3)cc2C1=Cc1cc(Br)c(O)c(Br)c1 : 6.68

Form field inhibition, entry COc1cc2ncnc(Nc3ccc4c(cnn4Cc4ccccc4)c3)c2cc1OC : -2.1

Form field inhibition, entry Cc1cc(Cl)cc2c1NC(=O)C2=NNc1ccc(S(N)(=O)=O)cc1 : 3.46

Form field inhibition, entry Cc1ccc2c(-c3ccnc(Nc4cccc(C(F)(F)F)c4)n3)c(-c3ccccc3)nn2n1 : 1.79

Form field inhibition, entry CCn1c(-c2nonc2N)nc2c(C#CC(C)(C)O)nc(OCCNC)cc21 : -2.07

----------
Target: Cytoplasmic tyrosine-protein kinase BMX (Homo sapiens);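 further: reported value is the mean percent inhibition of BMX, from the GSK PKIS kinase inhibitor screen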
Details: at 1 µM
Listing of entries alongside the reported inhibition.
Give the quantity in %, number only.

// known answers, use as guide
Cc1ccc(NC(=O)CC2CC2)cc1-c1ccc(C(=O)NCC2CC2)cc1    5.01
c1ccc(Cc2nc3ccc(Nc4ncnc5ccccc45)cc3[nH]2)cc1    5.59
NS(=O)(=O)c1ccc(NC=C2C(=O)Nc3ccc4ncsc4c32)cc1    13.8
COc1ccc(-c2nn3ncccc3c2-c2ccnc(Nc3cccc(C(F)(F)F)c3)n2)cc1    -4.27

Form field inhibition, entry CC(C)c1ccc2c(c1)NC(=O)/C2=N/Nc1ccc(S(N)(=O)=O)cc1 : 6.03

----------
Listing of entries alongside the reported inhibition.
Target: Dual specificity protein kinase TTK (Homo sapiens) (UniProt P33981);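 further: reported figures are mean TTK inhibition at 1 µM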
Sequence (P33981 whole entry): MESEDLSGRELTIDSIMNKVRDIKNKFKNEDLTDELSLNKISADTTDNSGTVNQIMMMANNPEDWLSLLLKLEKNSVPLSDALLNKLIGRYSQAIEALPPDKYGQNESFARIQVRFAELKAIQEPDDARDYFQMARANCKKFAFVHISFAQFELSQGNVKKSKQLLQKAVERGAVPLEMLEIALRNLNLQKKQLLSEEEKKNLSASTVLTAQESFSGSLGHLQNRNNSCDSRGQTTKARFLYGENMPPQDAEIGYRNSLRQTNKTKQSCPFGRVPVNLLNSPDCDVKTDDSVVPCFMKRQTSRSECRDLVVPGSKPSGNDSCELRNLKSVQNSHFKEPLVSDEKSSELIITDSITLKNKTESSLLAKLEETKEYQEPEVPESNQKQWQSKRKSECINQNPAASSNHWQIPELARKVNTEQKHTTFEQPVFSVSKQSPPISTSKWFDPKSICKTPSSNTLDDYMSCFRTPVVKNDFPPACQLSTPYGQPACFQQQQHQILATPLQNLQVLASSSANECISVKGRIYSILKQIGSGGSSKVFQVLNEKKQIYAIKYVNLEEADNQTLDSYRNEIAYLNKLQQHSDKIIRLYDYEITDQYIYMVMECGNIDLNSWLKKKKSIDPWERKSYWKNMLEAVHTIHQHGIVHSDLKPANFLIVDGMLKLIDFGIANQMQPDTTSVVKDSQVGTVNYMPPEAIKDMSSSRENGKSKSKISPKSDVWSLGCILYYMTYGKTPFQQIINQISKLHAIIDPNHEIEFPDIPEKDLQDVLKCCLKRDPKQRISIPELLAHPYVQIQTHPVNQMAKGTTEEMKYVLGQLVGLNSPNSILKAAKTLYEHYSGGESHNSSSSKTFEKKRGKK
Conditions: at 1 µM
Give the quantity in %, number only.

// known answers, use as guide
N#Cc1c(NC(=O)c2ccccc2F)sc2c1CCCC2    1.13
CN(C)C(=O)O[C@H]1CN[C@H](C#Cc2cc3ncnc(Nc4ccc(OCc5cccc(F)c5)c(Cl)c4)c3s2)C1    6.07
Nc1nccc(C#Cc2cncnc2Nc2ccc(OCc3cccc(F)c3)c(Cl)c2)n1    14.2
CN(c1ccc(NC(=O)Nc2ccc(OC(F)(F)F)cc2)cc1)c1ccnc(Nc2cccc(S(N)(=O)=O)c2)n1    6.4
O=C(Nc1ccc(Oc2ccc3[nH]c(NC(=O)c4ccco4)nc3c2)cc1)Nc1cc(C(F)(F)F)ccc1F    13.6
COc1cc2ncnc(Nc3ccc(C)c(O)c3)c2cc1OC    7.27
CN(C)C(=O)O[C@@H]1CN[C@@H](C#Cc2cc3ncnc(Nc4ccc(OCc5cccc(F)c5)c(Cl)c4)c3s2)C1    4.98

Attention now turns to another entry.
Form field inhibition, entry COc1cc(/C=N/Nc2ncnc3c2cnn3C(C)C)ccc1O : 2.81

----------
Biological target: Tyrosine-protein kinase Fgr (Homo sapiens);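 further: value reported as mean kinase inhibition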
Details: at 1 µM
Categories are defined by ranges of inhibition, namely Low (below 6%), Medium (6% to below 20%), High (20% or more)

CN(C)CCCn1c(-c2nonc2N)nc2cnccc21    Low
NS(=O)(=O)c1ccc(NC=C2C(=O)Nc3ccc4ncsc4c32)cc1    High
CC(C)c1ccc2c(c1)NC(=O)/C2=N/Nc1ccc(S(N)(=O)=O)cc1    Medium
COc1cc(Nc2nccc(-c3cnn4ncccc34)n2)cc(OC)c1    High
NS(=O)(=O)c1ccc(Nc2cc(-c3cccc(O)c3)n[nH]2)cc1    Medium

Task: Form: Item = Cc1cc(O)cc(C)c1/C=C/c1cncc(C(=O)N(C)C)c1 ; Class = ?
Result: Medium

Task: Form: Item = CS(=O)(=O)Nc1cccc(-c2ccc3c(NC(=O)C4CC4)n[nH]c3c2)c1 ; Class = ?
Result: Low

Task: Form: Item = NS(=O)(=O)c1cccc(Nc2cc(-c3ccc(F)cc3)n[nH]2)c1 ; Class = ?
Result: Medium

Task: Form: Item = CN(C)C(=O)O[C@@H]1CN[C@@H](C#Cc2cc3ncnc(Nc4ccc(OCc5cccc(F)c5)c(Cl)c4)c3s2)C1 ; Class = ?
Result: Medium

Task: Form: Item = CN(C)c1cc2c(Nc3ccc4c(cnn4Cc4ccccc4)c3)ncnc2cn1 ; Class = ?
Result: High

Task: Form: Item = O=C(Nc1ccc(Oc2ccc3[nH]c(NC(=O)c4ccco4)nc3c2)cc1)Nc1cc(C(F)(F)F)ccc1F ; Class = ?
Result: Medium

Task: Form: Item = COc1ccc(-c2nn3ncccc3c2-c2ccnc(Nc3cccc(C(F)(F)F)c3)n2)cc1 ; Class = ?
Result: High

Task: Form: Item = Nc1ccc(C#Cc2cncnc2Nc2ccc(OCc3cccc(F)c3)c(Cl)c2)cc1 ; Class = ?
Result: Low

Task: Form: Item = CCOc1nccc2c1nc(-c1nonc1N)n2CC ; Class = ?
Result: Low

Task: Form: Item = CN(C)C(=O)O[C@H]1CN[C@H](C#Cc2cc3ncnc(Nc4ccc(OCc5cccc(F)c5)c(Cl)c4)c3s2)C1 ; Class = ?
Result: Low

----------
Target: Tyrosine-protein kinase Blk (Homo sapiens) (UniProt P51451);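 further: mean percent inhibition of BLK kinase activity, from GSK PKIS kinase inhibitor set profiling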
Sequence (P51451 2-505 limits assumed): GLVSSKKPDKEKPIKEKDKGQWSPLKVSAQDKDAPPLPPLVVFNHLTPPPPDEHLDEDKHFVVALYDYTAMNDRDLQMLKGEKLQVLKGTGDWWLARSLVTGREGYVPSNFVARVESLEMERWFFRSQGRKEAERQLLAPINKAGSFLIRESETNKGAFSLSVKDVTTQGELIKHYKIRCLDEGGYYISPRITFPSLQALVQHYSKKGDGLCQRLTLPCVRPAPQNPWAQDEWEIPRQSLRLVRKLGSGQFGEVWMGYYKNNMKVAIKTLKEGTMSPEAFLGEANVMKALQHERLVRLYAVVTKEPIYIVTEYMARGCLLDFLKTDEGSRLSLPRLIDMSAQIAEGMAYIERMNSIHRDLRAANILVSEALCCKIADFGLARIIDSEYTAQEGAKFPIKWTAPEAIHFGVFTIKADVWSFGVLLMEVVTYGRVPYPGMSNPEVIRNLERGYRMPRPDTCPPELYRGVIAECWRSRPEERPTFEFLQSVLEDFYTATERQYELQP
Conditions: at 1 µM
assay metric: inhibition (%)
Give the quantity in %, number only.

CCn1c(-c2nonc2N)nc2ccc(F)cc21    4.5
Cc1ccc2c(-c3ccnc(Nc4ccc5c(c4)OCCO5)n3)c(-c3ccc(C(F)(F)F)cc3)nn2n1    4.48
Nc1nccc(C#Cc2cncnc2Nc2ccc(OCc3cccc(F)c3)c(Cl)c2)n1    5.98
Cc1ccc(NC(=O)CC2CC2)cc1-c1ccc(C(=O)NCC2CC2)cc1    2.73
COc1cc2ncn(-c3cc(OCc4ccccc4S(C)(=O)=O)c(C#N)s3)c2cc1OC    72.3

Form field inhibition, entry CN(C)C(=O)O[C@@H]1CN[C@@H](C#Cc2cc3ncnc(Nc4ccc(OCc5cccc(F)c5)c(Cl)c4)c3s2)C1 : 3.83

Form field inhibition, entry N#Cc1c(NC(=O)c2ccccc2F)sc2c1CCCC2 : 0.42

Form field inhibition, entry NS(=O)(=O)c1ccc(N/N=C2\C(=O)Nc3ccc(Cl)cc32)cc1 : 6.13

----------
Biological target: Tyrosine-protein kinase SYK (Homo sapiens);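 further: reported percentages are mean inhibition values for SYK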
Settings: at 0.1 µM
assay metric: inhibition (%)
Give the quantity in %, number only.

NS(=O)(=O)c1ccc(N/N=C2\C(=O)Nc3ccc(Cl)cc32)cc1    -0.57

The compound N#Cc1c(NC(=O)c2ccccc2F)sc2c1CCCC2 on Tyrosine-protein kinase SYK (Homo sapiens): inhibition was 0.7

The compound CN(C)C(=O)O[C@@H]1CN[C@@H](C#Cc2cc3ncnc(Nc4ccc(OCc5cccc(F)c5)c(Cl)c4)c3s2)C1 on Tyrosine-protein kinase SYK (Homo sapiens): inhibition was 6.58

The compound NS(=O)(=O)c1ccc(NC=C2C(=O)Nc3ccc4ncsc4c32)cc1 on Tyrosine-protein kinase SYK (Homo sapiens): inhibition was -8.02

The compound Nc1ccc(C#Cc2cncnc2Nc2ccc(OCc3cccc(F)c3)c(Cl)c2)cc1 on Tyrosine-protein kinase SYK (Homo sapiens): inhibition was -0.35

----------
Biological target: Ribosomal protein S6 kinase alpha-6 (Homo sapiens);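 further: each value is a mean inhibition of RSK4 from a GSK PKIS panel screen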
Conditions: at 1 µM
assay metric: inhibition (%)
Give the quantity in %, number only.

ON=C1CCc2cc(-c3nc(C4CCNCC4)[nH]c3-c3ccncc3)ccc21    -0.49
NS(=O)(=O)c1cccc(Nc2cc(-c3ccc(F)cc3)n[nH]2)c1    4.03
COc1cccc(-n2ncc3c(N/N=C/c4ccc(C)cc4)ncnc32)c1    3.14
CN(C)CCCn1c(-c2nonc2N)nc2cnccc21    4.47
CC(C)c1ccc(Nc2nccc(-c3cnn4ncccc34)n2)cc1    1.84
C[C@@H](Oc1cc(-n2cnc3ccc(OC[C@@H](O)CO)cc32)sc1C(N)=O)c1ccccc1Cl    12.7

Form field inhibition, entry c1ccc(Cc2nc3ccc(Nc4ncnc5ccccc45)cc3[nH]2)cc1 : 0.98

Form field inhibition, entry CN(c1ccc(NC(=O)Nc2ccc(OC(F)(F)F)cc2)cc1)c1ccnc(Nc2cccc(S(N)(=O)=O)c2)n1 : -0.89

Form field inhibition, entry Oc1cccc(-c2nc(-c3ccccc3)[nH]c2-c2ccncc2)c1 : 2.67

Form field inhibition, entry NS(=O)(=O)c1ccc(-c2cc3ccncc3cc2OCc2ccccc2)cc1 : 0.34

Form field inhibition, entry CCCN1CCCC(c2ccc(Nc3nc(Nc4cc(F)ccc4C(N)=O)c4cc[nH]c4n3)c(OC)c2)C1 (stereo unspecified) : 54.1

----------
Target: Mitogen-activated protein kinase 12 (Homo sapiens)
Conditions: at 0.1 µM
Description: GSK_PKIS: P38gamma mean inhibition at 0.1 uM [Nanosyn]
Listing of entries alongside the reported inhibition.
Give the quantity in %, number only.

// known answers, use as guide
O=S(=O)(CCOCc1ccc(-c2ccc3ncnc(Nc4ccc(OCc5cccc(F)c5)c(Cl)c4)c3c2)o1)c1ccccc1    1.14
COc1cccc(-n2ncc3c(N/N=C/c4ccc(S(C)(=O)=O)cc4)ncnc32)c1    2.12
Nc1nccc(-c2c(-c3ccc(F)cc3)nn3cc(C(F)(F)F)ccc23)n1    1.12
O=C(Nc1ccc(Oc2ccc3[nH]c(NC(=O)c4ccco4)nc3c2)cc1)Nc1cc(C(F)(F)F)ccc1F    -4.43
Cc1cc(O)cc(C)c1/C=C/c1cncc(C(=O)N(C)C)c1    4.71

Form field inhibition, entry Cc1ccc2c(-c3ccnc(Nc4ccc5c(c4)OCCO5)n3)c(-c3ccc(C(F)(F)F)cc3)nn2n1 : 0.73

Form field inhibition, entry COC(=O)c1cncc(/C=C/c2c(C)cc(O)cc2C)c1 : -1.81

Form field inhibition, entry NS(=O)(=O)c1ccc(N/N=C2\C(=O)Nc3ccc(Cl)cc32)cc1 : 0.26

Form field inhibition, entry COc1cc(Nc2nccc(-c3cnn4ncccc34)n2)cc(OC)c1 : 1.04

Form field inhibition, entry Cc1ccc2c(-c3ccnc(Nc4cccc(C(F)(F)F)c4)n3)c(-c3ccccc3)nn2n1 : 3.8

Form field inhibition, entry CN(C)C(=O)O[C@@H]1CN[C@@H](C#Cc2cc3ncnc(Nc4ccc(OCc5cccc(F)c5)c(Cl)c4)c3s2)C1 : 0.57

Form field inhibition, entry O=C1Nc2ccc(-c3cccnc3)cc2C1=Cc1cc(Br)c(O)c(Br)c1 : 2.25

Form field inhibition, entry Cc1ccc(NC(=O)CC2CC2)cc1-c1ccc(C(=O)NCC2CC2)cc1 : 0.38
